Experimental Protocol: folding stability dG unfold from trypsin proteolysis; higher = more stable
Overview of recorded folding stability dG unfold for various sequences
Give the value, in units of kcal/mol, as a plain number.

The following sequences have reported results that may help.
Query Sequence: SAFRFPPGQTIMIKIEWRNPGNGKKRKWSIPIRVDPDKGRVITLDMLKSFLRKWGFNPEDVKIEDITVMSAG [r14_93_TrROS]
folding stability dG unfold [kcal/mol]: 2.15
//
Query Sequence: SAGGSGMKLEKEIEVEVDPSGVGAEAVKEAVRAELEKEGYKVKVEIEVSEEEEKLYVKLHVEIYELSAGGSA [r2_172_JUSTAS]
folding stability dG unfold [kcal/mol]: 0.999
//
Query Sequence: SAGKPKVIFIEGMTKEQLRAAIDEAKKKLKPGDIIVVRSKEAADALKELLPDLTVYLVDEETKEVKKLPSAG [r5_391_TrROS_Hall]
folding stability dG unfold [kcal/mol]: 1.91

Let us examine a further case.
Input line: # query: folding stability dG unfold of entry SAGGSADADDVTIVINMFRNPNNKGWFFRIEIQDPDKEREIFMPFDDIPKFQEAGLKIEITEWYPFSAGGSA [r15_783_TrROS]
Output line: 2.41

---

Experimental Protocol: folding stability dG unfold from trypsin proteolysis; higher = more stable
A collection of sequences and their measured folding stability dG unfold
State the answer as a number, implicitly in kcal/mol.

Solved entries:
Query Sequence: SAGGLYKKDPDGQYVKPVPKVPPIPIEIKFPNGVEVKIEIYPYSNHITIEYTGPNPELANELIQEIIQSAGG [r13_701_TrROS]
folding stability dG unfold (kcal/mol): 0.425
//
Query Sequence: SAGGSAKPKIKINIFYPKDGQWYVMIQDPGGEEVMGPWDDIDKIIEAGIPADDVEIEWMPMPPGQFSAGGSA [r15_955_TrROS]
folding stability dG unfold (kcal/mol): 1.03
//
Query Sequence: SAGGSKPLKKIVIPLTPEELKKLKGKKVKITIKVDGKEYEIEFIDGYAVITVPAGEKVEITKIEIESAGGSA [r2_246_TrROS_Hall]
folding stability dG unfold (kcal/mol): 2.47
//
Query Sequence: SAGGSAGGSAGGSIVIEVDTLEEAKKLAEKLNLKVTEVKEVDGKLYVKIEIKSPEELKKSAGGSAGGSAGGS [r10_218_TrROS_Hall]
folding stability dG unfold (kcal/mol): 0.204
//
Query Sequence: SAGGSAGGSAGSITLPDGLTLTWNPATNTLTITLTAPPPPTTTTTTKPAATTTTTTTTTTSAGGSAGGSAGG [r11_331_TrROS_Hall]
folding stability dG unfold (kcal/mol): 2.18
//
Query Sequence: SAGGMEIKIENIEINPDKKTIQYNFEIYHDGQPFKMDISIEVDPKNGLYKITVTYPDFPGVKHTLYIPSAGG [r13_615_TrROS]
folding stability dG unfold (kcal/mol): 3.38
//
Query Sequence: SAGGSAGGSWIPLPDGYLIKITEVVPGGIRIKFPDMGNEITIPPGMPIKIKIIPVKDPDGEPISAGGSAGGS [r20_105_TrROS]
folding stability dG unfold (kcal/mol): 1.03
//
Query Sequence: SAGGSAGGSAGGKLVKVTFRTPGGGTLTVEVPPTESLTLPYGDKPILVDVKEDEVVFRDESAGGSAGGSAGG [r7_510_TrMRF]
folding stability dG unfold (kcal/mol): -0.572

Okay, next one:
Input line: Would you kindly share the measured folding stability dG unfold for SAGGGMEIRLTIYRVDPETGVETSVEKEVTLEEAKEIVKEIPEEGEYTVRVTRPDRPEDVSPEELKLLSAGG [r13_254_JUSTAS] ?
Output line: 0.246

---

Experimental Protocol: folding stability dG unfold (combined trypsin and chymotrypsin); higher = more stable
Assay Metric: folding stability dG unfold (kcal/mol)
Lab book: enter the figure in kcal/mol, no units written.

The following sequences have reported results that may help.
Query Sequence: SAGGEKVTVTVTTETKTVTVTVYKAPAPKFKVTEITLELDENGNLRLTIKLENGETLEFDSLEDLLAALSAG [r5_618_TrROS_Hall]
Units Label: kcal/mol
folding stability dG unfold: 2.73
//
Query Sequence: SAGGMSPDQIWKAKLLSRKKGKNGSVYNIVIYNPDNPKPIFINKPGDNPEDVLKELEELVKKGPIDLESAGG [r13_286_TrMRF]
Units Label: kcal/mol
folding stability dG unfold: 0.468
//
Query Sequence: SAEIEVKPGEELEITVNGKKLRITVEKVEVRVEVKELPPPPPPEVEVYTLTRDPATDELRLERRTAEELASA [r9_881_TrROS_Hall]
Units Label: kcal/mol
folding stability dG unfold: 0.23
//
Query Sequence: SAGMVVIEVKKDEVPVDPEKALVFEFGDKRYILVDGEKAEEIKDAFPNLDIKIKPVSPEELEKLLKAHSAGG [r19_271_TrMRF]
Units Label: kcal/mol
folding stability dG unfold: 1.27
//
Query Sequence: SKKKKEKKKKEKEKKEKKKVIVLSEEELLEKVRELAKKGKKVKIVVKTPDKELAERLAKEAEELGVEVEVSA [r9_468_TrROS_Hall]
Units Label: kcal/mol
folding stability dG unfold: 1.31

Input line: Item SAGGSAGGSAGMVIPSTSPEEAVEKLRELVEKRGDFLVDVKPTEVHPDGTVVIETKKKPLSAGGSAGGSAGG [r17_430_JUSTAS] has what recorded folding stability dG unfold?
Output line: -0.269

Input line: # lookup: folding stability dG unfold of SAGGSAGGSAGGFVLTFTLPDSVVRITLPEDANPEEIKQRLLEEHGVPIELRLIPPSNPLSAGGSAGGSAGG [r11_805_JUSTAS]
Output line: 0.782

---

Below, each entry is listed with its recorded folding stability dG unfold.
Experimental Protocol: folding stability dG unfold from chymotrypsin proteolysis; higher = more stable
Give the value in kcal/mol but do not write kcal/mol after it.

Query Sequence: SAGGEVELKIKIEIRVELNEDGELKVEIKIEIELRPKPEPELTEEERLAEELRKKYPGLSKEELEALLSAGG [r13_136_TrROS_Hall]
folding stability dG unfold [kcal/mol]: 1.63

Query Sequence: SAGGSAGGSAMPVKVKVTVKARFGDKEFELEFEIEVGPGATEEDIKNLVTEKYPGFEEVELESAGGSAGGSA [r18_195_JUSTAS]
folding stability dG unfold [kcal/mol]: 2.16

Query Sequence: SAGGSAGGSAGKKSYVLIKVKNPKTKETHTIVVPEENLEEVLKALASQPNVKVVDIERFPSAGGSAGGSAGG [r11_692_TrROS_Hall]
folding stability dG unfold [kcal/mol]: 4.11

Input line: Given the entry SAGGSAGGSAGGGMEFSTVTVKRTLKTLGKTEVTTVPVVNPVPPPPPLGPENIARSRGVLSAGGSAGGSAGG [r7_79_JUSTAS] , report its measured folding stability dG unfold.
Output line: -0.0494

Input line: Which folding stability dG unfold is listed for SAGGPVFEVTPEVDPDTDLVTYTVRVPADVDFAAVAKALETEFADGSRAEVKPLPDGTVVVVVRLPASAGGS [r8_255_TrMRF] ?
Output line: 0.307

Input line: Which folding stability dG unfold is reported for this sequence? SAGGSAGGAVVKLPGNTVMTIDPSTGIAYVTDPSGKVTKYTLTKFPDKTLWEEEPVEEIPSDLLSAGGSAGG [r6_324_JUSTAS]
Output line: 1.44

Input line: For SAGIPYRVLELEIPGVGVRVEVRLAPDGRIVEVRVTVVPVPPVPPALPLRPELLVPDEDGRWYSPEELLSAG [r5_685_TrMRF] , what is its reported folding stability dG unfold?
Output line: 2.26

Input line: Bench note: what folding stability dG unfold did SAGGSAGGSDPTYVEVRTLAGPAGPTRVLIRPSSGEWLEAEFPVDRPVVFFVPADVEVEVLPDSAGGSAGGS [r12_517_TrMRF] show?
Output line: 0.498

---

Experimental Protocol: folding stability dG unfold from chymotrypsin proteolysis; higher = more stable
Tick Met if folding stability dG unfold is 2 kcal/mol or greater. Tick Not met if folding stability dG unfold is less than 2 kcal/mol.

Illustrative cases are given below, each with its answer.
Query Sequence: SAGGSAGGGASTRRTITVPYEDPEEAFEKVKEEVKAETGKPTEVTLTEIDPNNPGVITVEVTVSSAGGSAGG [r6_211_JUSTAS]
Group Label: Not met

Query Sequence: SAGGSAGMPSVPVERTVTVTVVDAEGNLVGTVTLTLTFPGGVSEEEREAAIAAAIEAAVPPAGVVSSAGGSA [r15_310_JUSTAS]
Group Label: Met

Query Sequence: SAGGSAGGMVKVSSDPATGKVYVTYPGADPEAVAEKVKKEYGAKKIKVEKDPNKDVTTITITVESAGGSAGG [r6_662_JUSTAS]
Group Label: Not met

Query Sequence: SMTAEVTLTIVYPDGTSTTLPMTFPADDPEALRAAIRAAVAAAGYTPTALQMTFTAQPDGSVRVDVTVTVAS [r1_281_JUSTAS]
Group Label: Met

Query Sequence: SAGGSAGGSAGGDIFIPPNGKLVVIENLPSIEEALEILKNFPNLKPFIDPKTKKIIVPVSAGGSAGGSAGGS [r10_792_TrMRF]
Group Label: Not met

Input line: Please indicate if the recorded folding stability dG unfold for SAGGSAGGSAILRIKLEHPKSGKPMTWVIPPEMNIEQIADMLMEQHPNAEIKDIEWVPPNQISAGGSAGGSA [r18_242_TrROS] meets or exceeds 2 kcal/mol.
Output line: Not met

Input line: Reported folding stability dG unfold reaches at least 2 kcal/mol for SAGGSAGGSKKKKIEIIIVMSKEEAEKIAEELKKKYNIKEIKIKVIPLKKNSPKVKELLKKLKSAGGSAGGS [r12_649_TrROS_Hall] ?
Output line: Not met

Input line: Entry MEEEEKKKAETPEIPEEVAREKALEVARELGLEEIEEIEVLSASPEGYVTVRITLPTGGEVEITIPISELES [r1_435_JUSTAS] : is its folding stability dG unfold no less than 2 kcal/mol?
Output line: Met

Input line: Could you please find out whether SAGGSAGGKKVYEIKGLTPEQIRALVKENKGKVTIYYKDGKKEEKTIKEGDEIAPGETVYIEVESAGGSAGG [r6_303_TrROS_Hall] has folding stability dG unfold that meets 2 kcal/mol or exceeds it?
Output line: Not met

Input line: Reported folding stability dG unfold at or above 2 kcal/mol? SAGGSGQKFEIDRMIHIPLPNGRMLYIMRMKNPIMIMEFNGDNFRPVATVPNDDIPPEIRDLIKKLSAGGSA [r2_133_TrROS]
Output line: Met

Input line: Check the entry SAGGSAGGSEKPVLIVKVKVKNPKTKKWEEKTIEVPEGVKTPEEVAKALEKEFGDVVKVEILPSAGGSAGGS [r12_942_TrROS_Hall] : does folding stability dG unfold equal or exceed 2 kcal/mol?
Output line: Not met

Input line: # bool: folding stability dG unfold of SAGGSAGGSAGPITYRLEIRYEIERIEVRVYPGPEGPLVGEFRIEVRLEVRVEALPPEETSAGGSAGGSAGG [r11_24_TrMRF] >= 2 kcal/mol
Output line: Met

Input line: Is reported folding stability dG unfold greater than or equal to 2 kcal/mol here: SAGGSAGGSAGGPERELTVPITTPDGSGKSISAELGEEELEKLIEENPEWKEAIIEARRESAGGSAGGSAGG [r7_637_JUSTAS]
Output line: Not met

Input line: Dear colleague, could you confirm whether SAGGDYVKIDFTVMIPTPEQAEEMAEEIKNFFRFMGIKEVKIKVQRNPNNGMYYVTVDIEIRMPPGAVSAGG [r19_92_TrROS] has folding stability dG unfold at or above 2 kcal/mol?
Output line: Met

Cited source for all entries: the supplement of paper PMC12764529
